These measurements were taken from patent US20200071424A1.

Target: rabbit EL (rabbit)
Experiment: cell-based or functional assay
Test readout: Neutralizing activity IC50

Worked cases, Neutralizing activity IC50 given:
binder="16E7 (antibody, mouse IgG1, V domains shown, mouse IgG1 from hybridoma) VH: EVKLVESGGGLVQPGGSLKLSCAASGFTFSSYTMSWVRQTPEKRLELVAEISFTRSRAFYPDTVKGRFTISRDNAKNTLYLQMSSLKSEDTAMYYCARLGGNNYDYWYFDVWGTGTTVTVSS VL: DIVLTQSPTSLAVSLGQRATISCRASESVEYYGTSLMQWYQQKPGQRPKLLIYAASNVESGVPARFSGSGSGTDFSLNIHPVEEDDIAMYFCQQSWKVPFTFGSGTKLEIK" assay_result="> 40 nM"
binder="23H8 (antibody, mouse IgG2a, V domains shown, mouse IgG2a from hybridoma; also called 23H8 (mouse mAb)) VH: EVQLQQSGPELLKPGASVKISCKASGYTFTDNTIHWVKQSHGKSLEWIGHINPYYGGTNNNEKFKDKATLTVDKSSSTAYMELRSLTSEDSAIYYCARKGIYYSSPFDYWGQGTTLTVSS VL: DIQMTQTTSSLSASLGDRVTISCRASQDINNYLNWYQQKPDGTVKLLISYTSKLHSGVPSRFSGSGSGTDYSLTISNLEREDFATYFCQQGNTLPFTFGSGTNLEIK" assay_result="67 nM"

API: the following record is the query input.
Q. Need Neutralizing activity IC50 of 16B3 (antibody, mouse IgG2a, V domains shown, mouse IgG2a from hybridoma; also called 16B3 (mouse mAb)) VH: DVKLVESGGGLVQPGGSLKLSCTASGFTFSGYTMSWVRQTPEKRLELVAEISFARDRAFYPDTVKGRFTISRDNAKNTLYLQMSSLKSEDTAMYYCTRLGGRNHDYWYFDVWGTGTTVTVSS VL: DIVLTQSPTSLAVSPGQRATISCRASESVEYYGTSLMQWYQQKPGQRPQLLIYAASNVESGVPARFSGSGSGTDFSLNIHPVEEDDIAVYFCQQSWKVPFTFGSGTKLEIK , thanks.
A. 6.3 nM
